Target: T1, hCDH6aa54-615 APPavi (human, UniProt P55285 54-615)
T1 sequence: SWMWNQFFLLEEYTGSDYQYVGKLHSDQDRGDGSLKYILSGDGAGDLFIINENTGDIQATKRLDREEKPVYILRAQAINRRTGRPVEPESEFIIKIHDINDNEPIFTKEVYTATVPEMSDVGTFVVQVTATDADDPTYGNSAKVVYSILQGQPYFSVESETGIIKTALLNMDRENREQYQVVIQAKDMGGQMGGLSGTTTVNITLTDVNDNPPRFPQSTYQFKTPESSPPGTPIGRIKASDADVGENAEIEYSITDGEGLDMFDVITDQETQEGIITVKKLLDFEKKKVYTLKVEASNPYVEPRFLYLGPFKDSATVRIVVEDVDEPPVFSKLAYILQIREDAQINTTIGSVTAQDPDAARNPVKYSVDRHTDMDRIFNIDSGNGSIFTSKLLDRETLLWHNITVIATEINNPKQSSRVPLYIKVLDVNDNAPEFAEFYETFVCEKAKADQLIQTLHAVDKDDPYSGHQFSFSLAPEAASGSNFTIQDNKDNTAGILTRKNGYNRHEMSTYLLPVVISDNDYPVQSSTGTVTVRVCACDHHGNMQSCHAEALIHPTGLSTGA
Assay: SPR binning
Quick rule for you: response of secondary antibody on primary antibody-CDH6 complex under 20 gets Met, anything else gets Not met.

# BINDER, LABEL
records = [
    ("NOV1126 (antibody, human IgG1, lambda, V domains shown) VH: EVQLLESGGGLVQPGGSLRLSCAASGFTFSDHAIDWVRQAPGKGLEWVSVIAGSGSITYYADSVKGRFTISRDNSKNTLYLQMNSLRAEDTAVYYCARDTGVYREYMDVWGQGTLVTVSS VL: SYELTQPLSVSVALGQTARITCSGDAIGTKFAHWYQQKPGQAPVLVIYYDHERPSGIPERFSGSNSGNTATLTISRAQAGDEADYYCYSRASSNLVFGGGTKLTVLG", "Not met"),
    ("NOV0710 (antibody, human IgG1, kappa, V domains shown) VH: QVQLLESGGGLVQPGGSLRLSCAASGFTFSSYAMSWVRQAPGKGLEWVSVIRSSGSSTYYADSVKGRFTISRDNSKNTLYLQMNSLRAEDTAVYYCARGGGYFDYWGQGTLVTVSS VL: DIQMTQSPSSLSASVGDRVTITCRASQSISLWLNWYQQKPGKAPKLLIYAASTLQSGVPSRFSGSGSGTDFTLTISSLQPEDFATYYCQQYYTSPYTFGQGTKVEIKR", "Not met"),
    ("NOV0692 (antibody, human IgG1, lambda, V domains shown) VH: QVQLVESGGGLVKPGGSLRLSCAASGFTFSRYWMDWVRQAPGKGLEWVGRIKSKANGGITDYAAPVKGRFTISRDDSKNTLYLQMNSLKTEDTAVYYCARGMTFLGIWGQGTLVTVSS VL: DIELTQPPSVSVSPGQTASITCSGDSIGSKYAQWYQQKPGQAPVLVIYYNSERPSGIPERFSGSNSGNTATLTISGTQAEDEADYYCQSWDGQSTIRVFGGGTKLTVLG", "Not met"),
    ("NOV1132 (antibody, human IgG1, lambda, V domains shown) VH: QVQLQQSGPGLVKPSQTLSLTCAISGDSVSSQSAGWNWIRQSPSRGLEWLGRIYYRSKWYNDYAVSVKSRITINPDTSKNQFSLQLNSVTPEDTAVYYCAREKYTVSFYDFFDYWGQGTLVTVSS VL: SYELTQPLSVSVALGQTARITCSGDNIGSMTAHWYQQKPGQAPVLVIYDKNERPSGIPERFSGSNSGNTATLTISRAQAGDEADYYCQSWDDSYTSVVFGGGTKLTVLG", "Not met"),
    ("NOV1127 (antibody, human IgG1, kappa, V domains shown) VH: QVQLQQSGPGLVKPSQTLSLTCAISGDSVSSQSAAWNWIRQSPSRGLEWLGRIYYRSKWYNDYAVSVKSRITINPDTSKNQFSLQLNSVTPEDTAVYYCARERSYRDYFDYWGQGTLVTVSS VL: DIQMTQSPSSLSASVGDRVTITCRASQGIFTYLNWYQQKPGKAPKLLIYAASTLQSGVPSRFSGSGSGTDFTLTISSLQPEDFATYYCQQYYSTSLTFGQGTKVEIKR", "Not met"),
    ("NOV0719 (antibody, human IgG1, kappa, V domains shown) VH: QVQLLESGGGLVQPGGSLRLSCAASGFTFSSHWVHWVRQAPGKGLEWVSVISYMGSSTYYADSVKGRFTISRDNSKNTLYLQMNSLRAEDTAVYYCARGSYDMAFDVWGQGTLVTVSS VL: DIQMTQSPSSLSASVGDRVTITCRASQSIVSYLNWYQQKPGKAPKLLIYDASSLQSGVPSRFSGSGSGTDFTLTISSLQPEDFATYYCQQSGSHSITFGQGTKVEIKR", "Met"),
    ("NOV0712 (antibody, human IgG1, kappa, V domains shown) VH: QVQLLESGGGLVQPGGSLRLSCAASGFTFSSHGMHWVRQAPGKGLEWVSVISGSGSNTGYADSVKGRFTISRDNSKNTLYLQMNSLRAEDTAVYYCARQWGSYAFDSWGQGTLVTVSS VL: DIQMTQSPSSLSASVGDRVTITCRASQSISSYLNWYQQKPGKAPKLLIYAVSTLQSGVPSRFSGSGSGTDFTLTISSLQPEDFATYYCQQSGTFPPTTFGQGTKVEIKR", "Met"),
]
